# assay-summary: Human HepG2 cell viability assay in 384 well format
# Type: toxicity, cell-based
# Design: dose 125 nL, time 70.5 hour; concentration not given beside the values
# condition-context: HepG2 cells, read-out: Inhibition
Measured cytotoxicity at 70.5 h values are reported for all entries that follow.
Write down the numeric answer in % and omit the unit.

Examples with answers:
compound	unit-name	cytotoxicity at 70.5 h
O=C(CN1CCOC(Cn2cccn2)C1)NCCc1cccs1 (stereo unspecified)	%	-4.13
CCNc1ncc(C(=O)N2Cc3nc(C)[nH]c(=O)c3C2)cn1	%	4.44
CN1CCCN(C(=O)c2cnc(C(C)(C)C)nc2O)CC1	%	0.369

Noted for `c1ccc(-c2nc3c(c(NCc4nnc5n4CCC5)n2)CCNC3)cc1` : its cytotoxicity at 70.5 h reads -7.92

Noted for COc1c(F)cc(CN2CCCC3(CC2)CNC(=O)O3)cc1Cl (stereo unspecified) : its cytotoxicity at 70.5 h reads 5.1

Noted for CCC(CNC(=O)c1ccc(C(N)=O)cc1)Oc1cccc(F)c1 (stereo unspecified) : its cytotoxicity at 70.5 h reads -1.85
